These measurements were taken from patent US20260116991A1.

Known OD450 at 1 nM antibody of a selection of binders
# Tested Target: T1, murine GPC3-his protein (Sino Biological, Cat. No. 50989-M08B) (murine, UniProt Q8CFZ4 25-558)
# T1 construct: Bought protein; also called murine GPC3 protein
# T1 sequence (Q8CFZ4 25-558 limits assumed): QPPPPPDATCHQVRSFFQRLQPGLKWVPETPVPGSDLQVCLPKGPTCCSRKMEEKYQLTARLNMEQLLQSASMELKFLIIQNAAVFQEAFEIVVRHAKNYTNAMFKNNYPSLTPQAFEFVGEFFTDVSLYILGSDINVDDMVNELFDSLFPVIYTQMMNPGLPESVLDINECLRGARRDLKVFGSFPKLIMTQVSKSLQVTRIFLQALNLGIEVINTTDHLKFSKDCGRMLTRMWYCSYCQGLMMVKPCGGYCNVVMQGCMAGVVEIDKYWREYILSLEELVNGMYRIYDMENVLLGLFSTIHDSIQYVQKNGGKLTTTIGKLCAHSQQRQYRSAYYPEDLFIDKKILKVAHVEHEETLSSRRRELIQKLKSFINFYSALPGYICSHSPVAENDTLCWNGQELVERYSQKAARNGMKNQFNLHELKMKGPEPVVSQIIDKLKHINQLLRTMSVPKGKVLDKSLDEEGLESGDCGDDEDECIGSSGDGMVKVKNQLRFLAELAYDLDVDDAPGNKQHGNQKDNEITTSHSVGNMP
# Assay Details: ELISA, coated murine GPC3-His;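 further: antigen coated on plates at 1 µg/mL, test antibody bound for 2 h at 37 °C, detected with HRP-conjugated secondary antibody and TMB substrate after acid stop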
Report only the number, with the unit OD450 nm understood.

For the binder shown here, F1.153.1 human-murine chimeric antibody (antibody, human IgG1, kappa, V domains shown) VH: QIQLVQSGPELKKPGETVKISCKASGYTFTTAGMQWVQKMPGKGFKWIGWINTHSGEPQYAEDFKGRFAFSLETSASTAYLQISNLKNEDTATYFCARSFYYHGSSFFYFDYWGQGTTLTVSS VL: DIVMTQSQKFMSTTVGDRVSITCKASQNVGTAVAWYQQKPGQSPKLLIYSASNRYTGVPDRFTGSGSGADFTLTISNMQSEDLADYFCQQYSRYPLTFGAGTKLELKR , give the reported OD450 at 1 nM antibody.
0.05

With those in mind, consider the next binder.
Fill blank: measured OD450 at 1 nM antibody of the binder F4.18.4 human-murine chimeric antibody (antibody, human IgG1, kappa, V domains shown) VH: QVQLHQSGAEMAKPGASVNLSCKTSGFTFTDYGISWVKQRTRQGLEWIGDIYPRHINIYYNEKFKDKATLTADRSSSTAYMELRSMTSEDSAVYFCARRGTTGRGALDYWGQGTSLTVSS VL: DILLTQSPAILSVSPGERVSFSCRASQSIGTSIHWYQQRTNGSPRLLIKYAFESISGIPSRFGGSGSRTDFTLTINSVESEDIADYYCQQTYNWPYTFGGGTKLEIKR is ____.
0.14
